system: LXRb homodimer (NR concentration 270 nM); test: PBM binding z-score (relative to random genomic background probes); higher = stronger binding; sequences stand for … in GC…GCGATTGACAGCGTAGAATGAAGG
Please use Criterion met whenever PBM binding z-score is not below 0.1, and Criterion not met whenever it is.

Look over these answered cases.
residueSequence: ATACCAAGGTGATCGTGAGGTAGTTGATACTAAC
label: Criterion not met

residueSequence: AGAATGAGGTTAAGATCTGGGAAACAGAATACAT
label: Criterion not met

residueSequence: ATCGAAAGGTCGACGAGGTGAATATACACCGTTT
label: Criterion met

residueSequence: TCTGCTAGGTCAACGATGGTCAACTAATCTGCTA
label: Criterion not met

residueSequence: ACTATTAGTTGTCTTAGGGCAACCGATACGACGC
label: Criterion met

## Input PBM binding z-score >= 0.1 for `TCGAGTAGGTAACCAATGGGGCATTCAGCTTTCT` ?
## Output Criterion not met

## Input Same again, this time with `CGAACTAGGTCATCCAGGACAGTGATTACATTGA`
## Output Criterion not met

## Input Same again, this time with `CTACCAAGGTGTACAAGGTCGTTGATTACTATTC`
## Output Criterion not met

## Input Same again, this time with `CCAGACAGGTGATAAGGTAACTCAGCCTCGATTA`
## Output Criterion not met

## Input Same again, this time with `TCATATAGGTAAATGCTAGGTGAAAGTTCGATCT`
## Output Criterion not met

## Input Same again, this time with `TAGCCTAGGTCATGGGGCCAGTATAGTACGCATC`
## Output Criterion not met

## Input Same again, this time with `CCTAGCAGGCCAATCTGGGCCACTCAAGGCTTGA`
## Output Criterion not met

## Input Same again, this time with `CTACCAAGGTGATCAAGGTCGTTGATTACTATTC`
## Output Criterion not met

## Input Same again, this time with `ATCTCTAGGTCAAGTTCAGTGAAAGATCGATAGA`
## Output Criterion met

## Input Same again, this time with `CCTCGGAGGACAGGAGGTCAGAGCTGTCCGCTTT`
## Output Criterion not met

## Input Same again, this time with `ATCTCTAGGTAAAGATAGGTCAGTGAATGCAAAT`
## Output Criterion met

## Input Same again, this time with `CCTGCTAGGTCATGGTCAGCCAATCTACAGTATG`
## Output Criterion not met

## Input Same again, this time with `CCGACTAGGGCAAGGTTACCATAACGCACAGCCA`
## Output Criterion not met
